system: SW 1271 complex tumor spheroid viability; test: Anticancer human tumor SW 1271 cell line growth inhibition; details: second compound 0.000949 µM; first compound 3.16 µM; stronger effect = lower value;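 further: spheroids exposed to agents for seven days before readout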;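 on viability, T/C: percent of DMSO vehicle control luminescence so 100% = vehicle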
Doc: threshold 1% (exclusive). Items with viability, T/C beneath it return Fulfilled; others return Not fulfilled.

Solved entries (count: 5):
compound	label value
CC(C)n1c(=O)n(C)c2cnc3cc(F)c(-c4ccc(OCCCN5CCCCC5)nc4)cc3c21 + COc1cc2c(cc1O)CCNC21CSC2c3c(OC(C)=O)c(C)c4c(c3C(COC1=O)N1C(O)C3Cc5cc(C)c(OC)c(O)c5C(C21)N3C)OCO4	Not fulfilled
[2H]c1nc(C)nc([2H])c1-c1cc(NC[C@@H](C)c2cccc3c(C(=O)NC)ccnc23)ncn1 + COc1cc2c(cc1O)CCNC21CSC2c3c(OC(C)=O)c(C)c4c(c3C(COC1=O)N1C(O)C3Cc5cc(C)c(OC)c(O)c5C(C21)N3C)OCO4	Not fulfilled
CC1COCCN1c1cc(-c2ccnn2C)c2ccnc(-c3ccn[nH]3)c2n1 (stereo unspecified) + COc1cc2c(cc1O)CCNC21CSC2c3c(OC(C)=O)c(C)c4c(c3C(COC1=O)N1C(O)C3Cc5cc(C)c(OC)c(O)c5C(C21)N3C)OCO4	Fulfilled
COc1ccc([C@@H](O)c2cc(-c3ncnc4cc(N5CCOCC5)ccc34)c(F)cc2Cl)nn1 + COc1cc2c(cc1O)CCNC21CSC2c3c(OC(C)=O)c(C)c4c(c3C(COC1=O)N1C(O)C3Cc5cc(C)c(OC)c(O)c5C(C21)N3C)OCO4	Fulfilled
Cc1cc(C)c(CNC(=O)c2cc(-c3ccc(CN4CCOCC4)cc3)cc3c2cnn3C2CCCC2)c(=O)[nH]1 + COc1cc2c(cc1O)CCNC21CSC2c3c(OC(C)=O)c(C)c4c(c3C(COC1=O)N1C(O)C3Cc5cc(C)c(OC)c(O)c5C(C21)N3C)OCO4	Not fulfilled

Here's the next entry for you.
Qu. I wonder whether COc1cc(C)[nH]c(=O)c1CN1CCc2c(Cl)cc(C(OC)C3COC3)c(Cl)c2C1=O (stereo unspecified) + COc1cc2c(cc1O)CCNC21CSC2c3c(OC(C)=O)c(C)c4c(c3C(COC1=O)N1C(O)C3Cc5cc(C)c(OC)c(O)c5C(C21)N3C)OCO4 has viability, T/C below 1%. Can you tell?
Ans. Not fulfilled

* * *

Test system: SW 1271 complex tumor spheroid viability
Assay: Anticancer human tumor SW 1271 cell line growth inhibition;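 further: spheroids exposed to agents for seven days before readout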
Details: curve of first compound; second compound 0.0949 µM
Procedure: Multicellular complex tumor spheroid response to DNA repair inhibitors in combination with DNA-damaging drugs This study explores the anticancer activities of DNA-damaging drugs and inhibitors of DNA damage repair, both as single agents and in combinations. […] Twenty-six patient-derived or established malignant cell lines were evaluated representing sarcoma, melanoma, small cell lung cancer (SCLC), non-small cell lung cancer (NSCLC), as well as bladder, ovarian and pancreatic cancers. […]
pIC50: −log10 of the molar value.
readout label: pIC50

Below are worked cases with known answers.
compound	pIC50
Cc1cc(C)c(CNC(=O)c2cc(-c3ccc(CN4CCOCC4)cc3)cc3c2cnn3C2CCCC2)c(=O)[nH]1 + CC[C@@]1(O)C(=O)OCc2c1cc1n(c2=O)Cc2cc3c(CN(C)C)c(O)ccc3nc2-1	> 7.50
CC1COCCN1c1cc(-c2ccnn2C)c2ccnc(-c3ccn[nH]3)c2n1 (stereo not given) + CC[C@@]1(O)C(=O)OCc2c1cc1n(c2=O)Cc2cc3c(CN(C)C)c(O)ccc3nc2-1	> 7.50
Cn1ncnc1[C@H]1c2n[nH]c(=O)c3cc(F)cc(c23)N[C@@H]1c1ccc(F)cc1 + CC[C@@]1(O)C(=O)OCc2c1cc1n(c2=O)Cc2cc3c(CN(C)C)c(O)ccc3nc2-1	> 8.02
O=C(c1cc(Cc2n[nH]c(=O)c3ccccc23)ccc1F)N1CCN(C(=O)C2CC2)CC1 + CC[C@@]1(O)C(=O)OCc2c1cc1n(c2=O)Cc2cc3c(CN(C)C)c(O)ccc3nc2-1	> 7.02

Qu. Identify pIC50 associated with the compound COc1ccc([C@@H](O)c2cc(-c3ncnc4cc(N5CCOCC5)ccc34)c(F)cc2Cl)nn1 + CC[C@@]1(O)C(=O)OCc2c1cc1n(c2=O)Cc2cc3c(CN(C)C)c(O)ccc3nc2-1
Ans. > 7.50

* * *

test system: SW 1271 complex tumor spheroid viability; assay: Anticancer human tumor SW 1271 cell line growth inhibition; conditions: curve of first compound; second compound 100 µM;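 further: spheroids exposed to agents for seven days before readout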
readout label: IC50

Known results for molecules:
>>> print(df.to_string())
                                   molecule  value_observed
0  Cc1cc(C)c(CNC(=O)c2cc(-c3ccc(CN4CCOCC4)cc3)cc3c2cnn3C2CCCC2)c(=O)[nH]1 + Cn1nnc2c(C(N)=O)ncn2c1=O      > 10000 nM
1  Cn1ncnc1[C@H]1c2n[nH]c(=O)c3cc(F)cc(c23)N[C@@H]1c1ccc(F)cc1 + Cn1nnc2c(C(N)=O)ncn2c1=O       < 9.49 nM
2  CC1COCCN1c1cc(-c2ccnn2C)c2ccnc(-c3ccn[nH]3)c2n1 (stereo not given) + Cn1nnc2c(C(N)=O)ncn2c1=O       < 31.6 nM
3  Cc1sc2c(c1C)C(c1ccc(Cl)cc1)=NC(CC(=O)Nc1ccc(O)cc1)c1nnc(C)n1-2 (stereo not given) + Cn1nnc2c(C(N)=O)ncn2c1=O         54.2 nM

Qu. Indicate its recorded IC50; the molecule in question is O=C(c1cc(Cc2n[nH]c(=O)c3ccccc23)ccc1F)N1CCN(C(=O)C2CC2)CC1 + Cn1nnc2c(C(N)=O)ncn2c1=O
Ans. < 94.9 nM

* * *

The following compounds are listed with their measured IC50 values.
Tested on: SW 1271 complex tumor spheroid viability
Experiment: Anticancer human tumor SW 1271 cell line growth inhibition;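 further: spheroids exposed to agents for seven days before readout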
Conditions: curve of first compound; second compound 31.6 µM
Experimental: Multicellular complex tumor spheroid response to DNA repair inhibitors in combination with DNA-damaging drugs This study explores the anticancer activities of DNA-damaging drugs and inhibitors of DNA damage repair, both as single agents and in combinations. […] Twenty-six patient-derived or established malignant cell lines were evaluated representing sarcoma, melanoma, small cell lung cancer (SCLC), non-small cell lung cancer (NSCLC), as well as bladder, ovarian and pancreatic cancers. […]
Numeric only. Scale: µM

Qu. // fetch IC50 for COc1ccc([C@@H](O)c2cc(-c3ncnc4cc(N5CCOCC5)ccc34)c(F)cc2Cl)nn1 + Cn1nnc2c(C(N)=O)ncn2c1=O ; system: SW 1271 complex tumor spheroid viability
Ans. 1.41

Qu. // fetch IC50 for Cc1sc2c(c1C)C(c1ccc(Cl)cc1)=NC(CC(=O)Nc1ccc(O)cc1)c1nnc(C)n1-2 (stereo unspecified) + Cn1nnc2c(C(N)=O)ncn2c1=O ; system: SW 1271 complex tumor spheroid viability
Ans. 0.0701

Qu. Report its IC50 with SW 1271 complex tumor spheroid viability as the test system: CC(C)n1c(=O)n(C)c2cnc3cc(F)c(-c4ccc(OCCCN5CCCCC5)nc4)cc3c21 + Cn1nnc2c(C(N)=O)ncn2c1=O
Ans. 4.87

Qu. Report measured IC50 on SW 1271 complex tumor spheroid viability; entry: O=C(c1cc(Cc2n[nH]c(=O)c3ccccc23)ccc1F)N1CCN(C(=O)C2CC2)CC1 + Cn1nnc2c(C(N)=O)ncn2c1=O
Ans. 0.443

* * *

System: SW 1271 complex tumor spheroid viability
Assay: Anticancer human tumor SW 1271 cell line growth inhibition;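 further: spheroids exposed to agents for seven days before readout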;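 on viability, T/C: percent of DMSO vehicle control luminescence so 100% = vehicle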
Settings: second compound 0.000949 µM; first compound 0.3 µM; stronger effect = lower value
Procedure: Multicellular complex tumor spheroid response to DNA repair inhibitors in combination with DNA-damaging drugs This study explores the anticancer activities of DNA-damaging drugs and inhibitors of DNA damage repair, both as single agents and in combinations. […] Twenty-six patient-derived or established malignant cell lines were evaluated representing sarcoma, melanoma, small cell lung cancer (SCLC), non-small cell lung cancer (NSCLC), as well as bladder, ovarian and pancreatic cancers. […]
readout label: viability, T/C (%)
Unit % implied. Number only.

compound	viability, T/C, %
O=C(c1cc(Cc2n[nH]c(=O)c3ccccc23)ccc1F)N1CCN(C(=O)C2CC2)CC1 + COc1cc2c(cc1O)CCNC21CSC2c3c(OC(C)=O)c(C)c4c(c3C(COC1=O)N1C(O)C3Cc5cc(C)c(OC)c(O)c5C(C21)N3C)OCO4	5.88
CNCc1ccc(-c2cc(-c3nc(-c4ccc(S(=O)(=O)C(C)C)cc4)cnc3N)on2)cc1 + COc1cc2c(cc1O)CCNC21CSC2c3c(OC(C)=O)c(C)c4c(c3C(COC1=O)N1C(O)C3Cc5cc(C)c(OC)c(O)c5C(C21)N3C)OCO4	2.05
Cn1ncnc1[C@H]1c2n[nH]c(=O)c3cc(F)cc(c23)N[C@@H]1c1ccc(F)cc1 + COc1cc2c(cc1O)CCNC21CSC2c3c(OC(C)=O)c(C)c4c(c3C(COC1=O)N1C(O)C3Cc5cc(C)c(OC)c(O)c5C(C21)N3C)OCO4	5.88

Qu. Identify measured viability, T/C corresponding to Cc1sc2c(c1C)C(c1ccc(Cl)cc1)=NC(CC(=O)Nc1ccc(O)cc1)c1nnc(C)n1-2 (centres undefined) + COc1cc2c(cc1O)CCNC21CSC2c3c(OC(C)=O)c(C)c4c(c3C(COC1=O)N1C(O)C3Cc5cc(C)c(OC)c(O)c5C(C21)N3C)OCO4
Ans. 1.78
